All figures here come from patent US6444615B1.

The compounds listed here are annotated with their Herbicidal Activity FOX (post-emergence).
test system: Foxtail, (green) (Setaria viridis); experiment: Herbicidal post-emergence test, Foxtail (green); type: in vivo; conditions: 1200 g/ha, scale of 0-100, 0 no activity, 100 total control, about two or four weeks after application
Assay Metric: Herbicidal Activity FOX (post-emergence)

| Query Smiles | Readout Value |
| --- | --- |
| C#CCN1C(=O)COc2cc(F)c(N3C(=O)C(=O)N(C)C3=O)cc21 | 80 |
| C#CCOc1cc(N2C(=O)C(=O)N(CCCC)C2=O)c(F)cc1Cl | 40 |
| CCN1C(=O)C(=O)N(c2cc(OC3CCCC3)c(Cl)cc2F)C1=O | 60 |
| C#CCN1C(=O)COc2cc(F)c(N3C(=O)C(=O)N(CCC)C3=S)cc21 | 60 |
| O=C1C(=O)N(c2cc(OC3CCCC3)c(Cl)cc2F)C(=O)N1CCCl | 0 |
| CCCN1C(=O)C(=O)N(c2cc(OC3CCCC3)c(Cl)cc2F)C1=O | 95 |
| C#CCOc1cc(N2C(=O)C(=O)N(CCC)C2=O)c(F)cc1Cl | 60 |
| COC(=O)c1cc(N2C(=O)C(=O)N(C(C)C)C2=O)c(F)cc1Cl | 60 |
| C#CCN1C(=O)COc2cc(F)c(N3C(=O)C(=O)N(CCC)C3=O)cc21 | 60 |
| CN1C(=O)C(=O)N(c2cc(OC3CCCC3)c(Cl)cc2F)C1=O | 60 |
| C#CCOc1cc(N2C(=O)C(=O)N(C)C2=O)c(F)cc1Cl | 40 |
| C=CCOc1cc(N2C(=O)C(=O)N(C)C2=O)c(F)cc1Cl | 30 |
| CCCCN1C(=O)C(=O)N(c2cc(OC3CCCC3)c(Cl)cc2F)C1=O | 80 |
| C=CCOc1cc(N2C(=O)C(=O)N(CCCC)C2=O)c(F)cc1Cl | 60 |

---

Test system: Barnyardgrass (Echinochloa crusgalli)
Experiment: Herbicidal pre-emergence test, Barnyardgrass
Format: in vivo
Details: 1200 g/ha, scale of 0-100, 0 no activity, 100 total control, about two or four weeks after application
Method: Listed below, a typical planting design for the test, consisting of four monocot weeds, four dicot weeds and one sedge weed. [table] […] The compound to be evaluated was dissolved in an appropriate solvent, usually acetone, or a formulation of the evaluated compounds as described above, was added to the water, and sprayed over the flats or pots using a carrier volume equivalent to 187 or 468 liters per hectare to give a rate of application in grams per hectare (g/ha). […]
Recorded Herbicidal Activity BYG (pre-emergence), one value per entry.

| Molecule | Herbicidal Activity BYG (pre-emergence) |
| --- | --- |
| CCN1C(=O)C(=O)N(c2cc(OC3CCCC3)c(Cl)cc2F)C1=O | 0 |
| O=C1C(=O)N(c2cc(OC3CCCC3)c(Cl)cc2F)C(=O)N1CCCl | 40/40 |
| CCOC(=O)COc1cc(N2C(=O)C(=O)N(C)C2=O)c(F)cc1Cl | 0/0 |
| C#CCOc1cc(N2C(=O)C(=O)N(CCC)C2=O)c(F)cc1Cl | 95 |
| C#CCOc1cc(N2C(=O)C(=O)N(C)C2=O)c(F)cc1Cl | 0 |
| CCCN1C(=O)C(=O)N(c2cc(F)c(F)cc2F)C1=O [Compound C1, reference compound] | 0/0 |
| C#CCN1C(=O)COc2cc(F)c(N3C(=O)C(=O)N(CC(F)(F)F)C3=O)cc21 | 0/0 |
| C=CCOc1cc(N2C(=O)C(=O)N(C)C2=O)c(F)cc1Cl | 0 |
| C#CCOc1cc(N2C(=O)C(=O)N(CCCC)C2=O)c(F)cc1Cl | 0 |
| C#CCN1C(=O)COc2cc(F)c(N3C(=O)C(=O)N(CCC)C3=S)cc21 | 100 |
| CCCCN1C(=O)C(=O)N(c2cc(OC3CCCC3)c(Cl)cc2F)C1=O | 0 |
| COC(=O)c1cc(N2C(=O)C(=O)N(C(C)C)C2=O)c(F)cc1Cl | 0 |
| C=CCOc1cc(N2C(=O)C(=O)N(CCCC)C2=O)c(F)cc1Cl | 0/0 |
| CCCN1C(=O)C(=O)N(c2cc(OC3CCCC3)c(Cl)cc2F)C1=O | 0 |
| C#CCN1C(=O)COc2cc(F)c(N3C(=O)C(=O)N(C)C3=O)cc21 | 40 |
| C#CCN1C(=O)COc2cc(F)c(N3C(=O)C(=O)N(CCC)C3=O)cc21 | 100 |
| CN1C(=O)C(=O)N(c2cc(OC3CCCC3)c(Cl)cc2F)C1=O | 0 |

---

system: Nutsedge, (yellow) (Cyperus esculentus); assay: Herbicidal post-emergence test, Nutsedge (yellow); format: in vivo; conditions: 1200 g/ha, scale of 0-100, 0 no activity, 100 total control, about two or four weeks after application

| Compound | Herbicidal Activity NUT (post-emergence) |
| --- | --- |
| C#CCN1C(=O)COc2cc(F)c(N3C(=O)C(=O)N(C)C3=O)cc21 [Compound 22] | 60 |
| CCN1C(=O)C(=O)N(c2cc(OC3CCCC3)c(Cl)cc2F)C1=O [Compound 4] | 0/0 |
| CN1C(=O)C(=O)N(c2cc(OC3CCCC3)c(Cl)cc2F)C1=O [Compound 3] | 0/0 |
| C#CCOc1cc(N2C(=O)C(=O)N(C)C2=O)c(F)cc1Cl [Compound 12] | 0/0 |
| C#CCOc1cc(N2C(=O)C(=O)N(CCC)C2=O)c(F)cc1Cl [Compound 13] | 30 |
| C=CCOc1cc(N2C(=O)C(=O)N(CCCC)C2=O)c(F)cc1Cl [Compound 16] | 0/0 |
| CCCCN1C(=O)C(=O)N(c2cc(OC3CCCC3)c(Cl)cc2F)C1=O [Compound 10] | 30 |
| CCOC(=O)COc1cc(N2C(=O)C(=O)N(C)C2=O)c(F)cc1Cl [Compound 17] | 0/0 |
| C=CCOc1cc(N2C(=O)C(=O)N(C)C2=O)c(F)cc1Cl [Compound 15] | 0/0 |
| O=C1C(=O)N(c2cc(OC3CCCC3)c(Cl)cc2F)C(=O)N1CCCl [Compound 6] | 0/0 |
| C#CCOc1cc(N2C(=O)C(=O)N(CCCC)C2=O)c(F)cc1Cl [Compound 14] | 0/0 |
| C#CCN1C(=O)COc2cc(F)c(N3C(=O)C(=O)N(CCC)C3=S)cc21 [Compound 25] | 40 |
| COC(=O)c1cc(N2C(=O)C(=O)N(C(C)C)C2=O)c(F)cc1Cl [Compound 18] | 0/0 |
| CCCN1C(=O)C(=O)N(c2cc(OC3CCCC3)c(Cl)cc2F)C1=O [Compound 8] | 0/0 |
| CCCN1C(=O)C(=O)N(c2cc(F)c(F)cc2F)C1=O [Compound C1, reference compound] | 0/0 |
| C#CCN1C(=O)COc2cc(F)c(N3C(=O)C(=O)N(CCC)C3=O)cc21 [Compound 23] | 40 |
| C#CCN1C(=O)COc2cc(F)c(N3C(=O)C(=O)N(CC(F)(F)F)C3=O)cc21 [Compound 24] | 0/0 |

---

# Herbicidal Activity BID (pre-emergence) per entry
Test system: Hairy Beggarticks (Bidens pilosa)
Assay: Herbicidal pre-emergence test, Hairy Beggarticks
Assay type: in vivo
Conditions: 1200 g/ha, scale of 0-100, 0 no activity, 100 total control, about two or four weeks after application
Procedure: Listed below, a typical planting design for the test, consisting of four monocot weeds, four dicot weeds and one sedge weed. [table] […] The compound to be evaluated was dissolved in an appropriate solvent, usually acetone, or a formulation of the evaluated compounds as described above, was added to the water, and sprayed over the flats or pots using a carrier volume equivalent to 187 or 468 liters per hectare to give a rate of application in grams per hectare (g/ha). […]

| Compound | Herbicidal Activity BID (pre-emergence) |
| --- | --- |
| CCN1C(=O)C(=O)N(c2cc(OC3CCCC3)c(Cl)cc2F)C1=O [Compound 4] | 0 |
| O=C1C(=O)N(c2cc(OC3CCCC3)c(Cl)cc2F)C(=O)N1CCCl [Compound 6] | 30 |
| CCCN1C(=O)C(=O)N(c2cc(OC3CCCC3)c(Cl)cc2F)C1=O [Compound 8] | 100 |
| CCCCN1C(=O)C(=O)N(c2cc(OC3CCCC3)c(Cl)cc2F)C1=O [Compound 10] | 0 |
| C#CCOc1cc(N2C(=O)C(=O)N(C)C2=O)c(F)cc1Cl [Compound 12] | 40 |
| C#CCOc1cc(N2C(=O)C(=O)N(CCC)C2=O)c(F)cc1Cl [Compound 13] | 100 |
| C=CCOc1cc(N2C(=O)C(=O)N(C)C2=O)c(F)cc1Cl [Compound 15] | 0 |
